- experimental_details: yeast display, Sf9 membrane polyspecificity reagent, FACS + sequencing; frameworks hold sequencing errors
experimental_endpoint: polyreactivity (PSR sort gate)

QVQLVESGAGLVQAGGSLRLSCAASGRIFHFYAMGWYRQAPGKERELVAAITSRTGNTYYADSVKGRFTISRDNAKNTVYLQMNSLKPEDTAVYYCAAKLVNALLHYRNWNHNNYWGQGTQVTVSS : low polyreactivity
QVQLVESGGGLVHAGGSLRLSCAASGRTFYYNAKGWYRQAPGKESELVAAISSGDSTYYADSVKGRFTISRDNAKNTVSLQLNSLKPEDTAVYYCYADTGLGSLDFDKRDYWGQGTQVTVSS : low polyreactivity
QVQLVESGGGLVQAGGSLRLSCAASGSIFSIYAMGWYRQAPWKERELVAAITWGGGSTYYADSVKGRFTISRDNAKNTVYVQMNSLKPEDTAVYYCAADSLTWYGTYYYWGQGTQVTVSS : high polyreactivity
QVQLVESGGGLVQAGGSLRLSCAASGRTFLIYAMGWYRQAPGKERELVAAITSGGRTKYADSVKGRFTISRDNAKNTVYLQMNSLKPEDTAVYYCAAESNRLRYYYWGQGTQVTVSS : high polyreactivity

Shifting focus to the sequence that follows.
Just so you know, measured polyreactivity (PSR sort gate) for `QVQLVESGGRLVQAGGSLRLSCAASGSILDGNTMGWYRQAPGKEMELVAAITWDGTSTYYADSVKGRFTISRDNAKNTVYLQMNSLKPEDTAVYYCAATKGYSDQSTGYYAYIHYDYWGQGTQVTVSS` came out at low polyreactivity

* * *

- experimental_details: yeast display, Sf9 membrane polyspecificity reagent, FACS + sequencing; frameworks hold sequencing errors
experimental_endpoint: polyreactivity (PSR sort gate)

Below: 4 sequences and their reported polyreactivity (PSR sort gate).
QLQLVESGGGLVQAGGSLRLICADSGRTFPSNTMGWYRQAPGKERELVAAITNSGGSTYYADSVKGRFTISRDNAKNTVYLQMNSLKPEDTAVYYCAKVVGAPYVEYDYWGQGTQVSVSS : low polyreactivity
QVQLVESGGGLVQAGGSLRLSCAASGSIFGPYAMGWYRQAPGKERELVAANTWTGGRTYYSDSVKGRFTISRDNAKNTVYLQMNSLKPEDTAVYYCAVRHRYTRAYWGRDYWGQGTQVTVSS : low polyreactivity
QVQLVESGGGLVQAGGSLRLSCAASGSILGSYAMGWYRQAPGKERELVAAINYSGGSTYYADSVKGRFTISRDNAKNTVYLQMNSLKPEETAVYYCAAVATAGYSNYKLDYWGQGTQVTVSS : low polyreactivity
QVQLVESGGGLVQAGGSLRLSCAASGFTFAYNAMGWYRQAPGKERELVATISWSGGSPYYADSVKGRFTISRDNAKNTVYLQMNSLKPEDTAVYYCATTIFYTYYGLYDYWGQGTQVTVSS : high polyreactivity

List polyreactivity (PSR sort gate) for every entry below, keeping the order given.
1. QVQLVESGGGLVQAGGSLRLRCAASGIIFTDYAMGWYRQAPGKERELVAAISSGGGSTYYAHSVKGRFTISRDNAKNTVYFLMNSLKPDVTAVYYCAAEGYLISGAGDYLYDYYWGQGTQVTVSS
2. QVQLVESGGGLVQAGGSLRLSCAASGSIFGGNAMGWYRQAAGKERELVAAITQSGGRTYYADSVKGRFTISRDNAKNTVYLQMNSLKPEDTAVYYCNRVYKSQTTDSFPLSYYYWGQGTQVTVSS
3. QVQLVESGGGLVQAGGSLRLSCAASGSTFRYYAMAWYREAPGKERELVAAISRRGGSTYYADSVKGRFTISRDNAKNTVYLQMNSLIPEDTAVYYCNAAASTFTSWIRGPGVCYDYWGQGTQVTVSS
4. QVQLVESGGGLVQAGGSLRLSCAASGSIFAYYVMGWYRQAPGKERELVAAISRSGGRTYYADSVKGRFTISRDNAKNTVYLQMNSLKPEETAVYYCNSELYSRPPGAQDPRLRFDYWGQGTQVTVSS
5. QVQLVESGGGLVQAGGSLRLSCAASGSTFNKYAMGWYRPAPGKERELVAVITKRGGSTYYADSVKGRFTISRDNAKNTVYLQMNSLKPEDTAVYYCAASSLYYGYDYWGQGTQVTVSS
6. QVQLVVSGGGLVQAGGSLRLSCAASGFTFIVNAMGWYRQAPGKERELVAAISWNGGSTYYADSVKGRFTISRDNAKNTVYLQMNSLKPEATAVYYCAAVRYNSRGSTTPSEMYYWGQGTQVTVSS
7. QVQLVESVGGLVQAVGSLRLSCAASGNTFYRYAMGWYIQAPGKERELVAAITWRSTYYADSVKGRFTISRDNAKNTVYLQMNSLKPEDTAVYYCAVSVRPYVIYLYDYWGQGTQVTVSS

high polyreactivity
high polyreactivity
high polyreactivity
high polyreactivity
high polyreactivity
low polyreactivity
high polyreactivity
